measurement_target: human IL-23R (Homo sapiens)
Sequence (Q5VWK5 22-629): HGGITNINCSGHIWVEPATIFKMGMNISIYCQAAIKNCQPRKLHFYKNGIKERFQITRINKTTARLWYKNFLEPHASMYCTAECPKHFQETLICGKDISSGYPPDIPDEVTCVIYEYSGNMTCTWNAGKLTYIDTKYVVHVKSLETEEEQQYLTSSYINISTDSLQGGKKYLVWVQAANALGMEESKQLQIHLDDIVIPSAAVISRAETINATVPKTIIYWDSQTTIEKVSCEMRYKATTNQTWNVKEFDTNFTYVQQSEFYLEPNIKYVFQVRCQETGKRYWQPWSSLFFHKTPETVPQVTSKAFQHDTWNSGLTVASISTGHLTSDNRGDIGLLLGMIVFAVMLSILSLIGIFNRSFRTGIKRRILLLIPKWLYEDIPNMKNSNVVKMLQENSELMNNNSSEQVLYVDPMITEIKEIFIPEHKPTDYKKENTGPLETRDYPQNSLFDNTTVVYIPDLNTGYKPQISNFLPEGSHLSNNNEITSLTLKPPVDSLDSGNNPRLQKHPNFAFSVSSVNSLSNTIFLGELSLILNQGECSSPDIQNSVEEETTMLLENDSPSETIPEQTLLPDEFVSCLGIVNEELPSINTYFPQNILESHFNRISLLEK
test_summary: biochemical
condition_label: read-out: % displacement (hIL-23R NIuc)
*1 amine or outer side, *2 acyl side, *3 side chain or, on linkers, in order; H or OH if unused. Where a SMILES comes first, the peptide text is derived from it. Bridges are numbered along the chain shown (N, C = ends). [ ]: non-standard residue; d: D form. X8 = O=C(CC[C@@H](N[*:2])C(=O)[*:3])[*:1]; 2Nal = N[C@@H](Cc1ccc2ccccc2c1)C(=O)O; AEF = NCCOc1ccc(C[C@H](N)C(=O)O)cc1; 3Pal = N[C@@H](Cc1cccnc1)C(=O)O; αMeL = CC(C)C[C@](C)(N)C(=O)O; Dab = NCC[C@H](N)C(=O)O
This listing pairs molecules with measured Emax.
Quick note: give the figure in %, leave out the unit.

Examples with answers:
molecule	recorded_result
CNC(=O)[C@H](Cc1cccnc1)NC(=O)[C@H](CCN)NC(=O)[C@@H]1CCC(=O)NCCC[C@@H]2NC(=O)CC[C@H](NC(=O)[C@H](CCC(N)=O)NC(=O)[C@H](Cc3c[nH]c4ccccc34)NC(=O)CNC2=O)C(=O)N[C@@H](Cc2ccc(OCCN)cc2)C(=O)N[C@@H](Cc2ccc3ccccc3c2)C(=O)N[C@@](C)(CC(C)C)C(=O)N1 [Compound 90]	101
CNC(=O)[C@H](Cc1cccnc1)NC(=O)[C@H](CCN)NC(=O)[C@@H]1CCC(=O)NCC[C@@H]2NC(=O)CC[C@H](NC(=O)[C@H](CCC(N)=O)NC(=O)[C@H](Cc3c[nH]c4ccccc34)NC2=O)C(=O)N[C@@H](Cc2ccc(OCCN)cc2)C(=O)N[C@@H](Cc2ccc3ccccc3c2)C(=O)N[C@@](C)(CC(C)C)C(=O)N1 [Compound 94]	99

Continue with the molecule presented below.
Noted for CNC(=O)[C@H](Cc1cccnc1)NC(=O)[C@H](CCN)NC(=O)[C@@H]1CCCCNC(=O)[C@H]2CCC(=O)N[C@@H](Cc3c[nH]c4ccccc34)C(=O)N[C@@H](CCC(N)=O)C(=O)N[C@@H](CCC(=O)N2)C(=O)N[C@@H](Cc2ccc(OCCN)cc2)C(=O)N[C@@H](Cc2ccc3ccccc3c2)C(=O)N[C@@](C)(CC(C)C)C(=O)N1 [Compound 108] (WQE[AEF][2Nal][αMeL]K[Dab][3Pal]-NHMe; linker N-3-7 via X8) : its Emax reads 101

====

test_summary: Peptide stability in simulated gastric fluid (SGF)
Type: in vitro ADME
condition_label: pig, simulated gastric fluid (SGF) with porcine pepsin (3.2 g/L), pH 1.2, SAR tables; % peptide remaining, 10 µM, 37 °C, porcine pepsin, pH 1.2, 4 h; read-out: SGF (% after 4 h)
measure: remaining at 4 h, 10 µM (%)
Quick note: give the figure in %, leave out the unit.

Noted for CC(C)C[C@]1(C)NC(=O)[C@H](Cc2ccc3ccccc3c2)NC(=O)[C@H](Cc2ccc(OCCN)cc2)NC(=O)[C@@H]2CCC(=O)N[C@H](CCCCNC(=O)CC[C@@H](C(=O)N[C@@H](CCN)C(=O)N[C@@H](Cc3cccnc3)C(N)=O)NC1=O)C(=O)N[C@@H]([C@@H](C)O)C(=O)N[C@@H](C(C)C)C(=O)N[C@@H](Cc1c[nH]c3ccccc13)C(=O)N[C@@H](CCC(N)=O)C(=O)N2 : its remaining at 4 h, 10 µM reads 104

Noted for CC[C@H](C)[C@@H]1NC(=O)[C@@H]2CCCCNC(=O)CC[C@@H](C(=O)N[C@@H](CCN)C(=O)N[C@@H](Cc3cccnc3)C(=O)NC)NC(=O)[C@](C)(CC(C)C)NC(=O)[C@H](Cc3ccc4ccccc4c3)NC(=O)[C@H](Cc3ccc(OCCN)cc3)NC(=O)[C@H](CCC(=O)N2)NC(=O)[C@H](CCC(N)=O)NC(=O)[C@H](Cc2c[nH]c3ccccc23)NC(=O)[C@H](C(C)C)NC1=O : its remaining at 4 h, 10 µM reads 109

Noted for CC[C@H](C)[C@@H]1NC(=O)[C@@H]2CCCCNC(=O)CC[C@@H](C(=O)N[C@@H](CCN)C(=O)N[C@@H](Cc3cccnc3)C(=O)NC)NC(=O)CNC(=O)[C@H](Cc3ccc4ccccc4c3)NC(=O)[C@H](Cc3ccc(OCCN)cc3)NC(=O)[C@H](CCC(=O)N2)NC(=O)[C@H](CCC(N)=O)NC(=O)[C@H](Cc2c[nH]c3ccccc23)NC(=O)[C@H](C(C)C)NC1=O : its remaining at 4 h, 10 µM reads 95
